Experiment: NCI Yeast Anticancer Drug Screen. Data for the sgs1 mgt1 strain (AID 161)
Conditions: S. cerevisiae sgs1 mgt1 strain, at 50.0 µM, stronger effect = higher value
Compounds without any hit were thinned out: in the full panel of roughly 79,000, 15% have a hit.
Just so you know, the groups by growth inhibition go like this: low value = under 60%, medium value = from 60% up to 90%, high value = 90% and over

Here are 3 molecules together with their reported answers.
[[record]]
molecule = "O=[N+]([O-])c1ccc(C(Br)(Br)c2ccc([N+](=O)[O-])cc2)cc1"
category = "high value"

[[record]]
molecule = "CCN(c1ccc(C=O)cc1)c1ccc([N+](=O)[O-])cc1[N+](=O)[O-]"
category = "medium value"

[[record]]
molecule = "COc1cccc(/C=C(\\NC(=O)c2ccccc2)c2nc3ccccc3s2)c1"
category = "high value"


Input: Class (by measured growth inhibition) for Cc1c(CCCl)c(N=[N+]=[N-])n2c(nc3ccccc32)c1C#N
Output: low value

Input: Any idea which band O=C(CCl)Nc1cc(Cl)ccc1Cl is in?
Output: low value

Input: For the record C1C[OH+]CC[OH+]CCNCC[OH+]CC[OH+]CCN1.[Cl-].[Pt+4] , report the class its growth inhibition corresponds to.
Output: medium value

Input: Category lookup for the molecule N#C/C(=C\c1cc(Cl)cc(Cl)c1O)C(/C(C#N)=C/c1cc(Cl)cc(Cl)c1O)c1ccc2c(c1)OCO2 (stereo unspecified)
Output: high value

Input: Given c1ccc(N/N=C2/CCCC3/C(=N\Nc4ccccc4)CCCC23)cc1 (stereo unspecified) , name the class its growth inhibition places it in.
Output: medium value

Input: Determine which band this molecule sits in: CC(=O)OC1=CC2(OC(C)=O)CC(C)(C)C1C1C(=O)C=CC(=O)C12 (stereo unspecified)
Output: medium value

Input: Band for CCOC(=O)c1[nH]n(-c2ccccc2)c(=O)c1/C=N/C(=S)N=Nc1c(O)[nH]c2ccccc12 ?
Output: low value

Input: // return the class label for N[C@@H]1CCCC[C@@H]1N.O=C([O-])CN(CP(=O)([O-])[O-])CP(=O)([O-])[O-].[Pt+2]
Output: high value

Input: Would you mind sorting CNCC(O)c1cccc(O)c1 (stereo unspecified) into the appropriate category?
Output: low value

Input: Please classify: Cc1cccc(N2C(=O)c3ccccc3C2(c2ccccc2)N2CCCCC2)c1 (stereo unspecified)
Output: medium value

Input: Hello team, could you let me know which band the following molecule falls into: Cc1ccnc(-c2cc(C)ccn2)c1
Output: low value

Input: Please indicate the class for O=C(O)CCC(=O)c1ccc2c(c1)CCCC2 based on its growth inhibition.
Output: medium value

Input: Any idea which band O=C(O)/C=C/c1ccc2c(c1)CCCC2 is in?
Output: medium value

Input: Field: class (growth inhibition) — entry: O=Cc1c(O)ccc2ccccc12
Output: high value

Input: Please let me know in which category the item CC(=O)O[C@@H]1[C@@H](O)[C@H]2O[C@@H]3C=C(C)CC[C@]3(CO)[C@]1(C)[C@@]21CO1 belongs.
Output: low value

Input: In plain terms, what class is O=C(c1ccccc1)C1(C(=O)c2ccccc2)/C(=N\O)C2CCC1C2 (stereo unspecified) ?
Output: low value

Input: Could you tell me which band O=C(CCc1ccccc1)OCC1OC(OC(=O)CCc2ccccc2)C(OC(=O)CCc2ccccc2)C(OC(=O)CCc2ccccc2)C1OC(=O)CCc1ccccc1 (stereo unspecified) belongs to?
Output: low value

Cited source for all entries: PubChem BioAssay (NCI)
